# test_protocol: Teratogenic effect in Swiss Webster Vancouver mouse assessed as embryo lethality at 336 mg/kg, ip
# Type: toxicity, organism-based
# Design: dose 336 mg/kg, route intraperitoneal
# test_context: in vivo, read-out: Activity
# Lookup of reported mortality keyed by entry

- smiles_code: "CCC[C@H](C(=O)NC(N)=O)C(C)C"
  mortality: "10.2%"
- smiles_code: "CCC[C@@H](C(=O)NC(N)=O)C(C)C"
  mortality: "54.4%"

====

# test_protocol: Solubility in water
# Type: physicochemical
# Lookup of reported solubility keyed by entry
property_name: solubility (µg/mL)

- compound: "CCCC(CCC)C(N)=O [VALPROMIDE]"
  qualifier_symbol: "="
  numeric_result: 3700
- compound: "CCCCCCCC(=O)NC(N)=O"
  qualifier_symbol: "<"
  numeric_result: 50
- compound: "CC(C)C(C(=O)NC(N)=O)C(C)C"
  qualifier_symbol: "="
  numeric_result: 270
- compound: "CCCC(C(=O)NC(N)=O)C(C)C (racemic)"
  qualifier_symbol: "="
  numeric_result: 130
- compound: "CCCC(CCC)C(=O)O"
  qualifier_symbol: "="
  numeric_result: 1300
- compound: "CCCC(CCC)C(=O)NC(N)=O"
  qualifier_symbol: "="
  numeric_result: 120
- compound: "CCC(C)C(CC)C(=O)NC(N)=O (configuration not stated) [CAPURIDE]"
  qualifier_symbol: "="
  numeric_result: 280

Recorded values, source ChEMBL document CHEMBL1138323.
